System: SK-MEL-28 melanoma
Assay: NCI tumour cell line growth inhibition, 48 h
Quick list: TGI per entry.

// solved cases for TGI follow
1. Cc1ccsc1-c1ccc2c(c1)COC2(CCCN(C)C)c1ccc(F)cc1 (centres undefined)	3.33 µM
2. CCC12C=CCN3CCC4(c5cc(C(c6ccc(OC)cc6)C6Cc7ccccc7N6)c(OC)cc5N(C)C4C(O)(C(=O)OC)C1O)C32 (centres undefined)	> 100 µM
3. CCCCCCCCCCCCCCCCN(CC)CC	3.84 µM
4. CN(C)c1ccc(/C=C(\NC(=O)c2ccccc2)C(=O)Nc2cccc(C(=O)NCCCO)c2)cc1	> 100 µM
5. Cc1cn(C2CCN(CC3COC(C)(C)O3)O2)c(=O)[nH]c1=O (centres undefined)	> 100 µM
6. C=CC(=O)Nc1cccc(Oc2nc(Nc3ccc(N4CCN(C)CC4)cc3OC)ncc2Cl)c1	4.07 µM

Look up TGI for this compound: CCCCC1(O)CC2CC1C(C)C2(C)C (centres undefined)
> 100 µM

Look up TGI for this compound: CCOC(=O)CN(c1ccccc1)c1nc(=[N+](C)C)ss1
> 100 µM

Look up TGI for this compound: Cc1ccc(C(=O)Oc2ccc(/C=C3\CCC/C(=C\c4ccc(OC(=O)c5ccc(C)cc5)cc4)C3=O)cc2)cc1
> 100 µM

Look up TGI for this compound: COc1ccc2c(c1)C(c1cc(OC)c3c(c1)OCO3)C1=C(COC1=O)N2 (centres undefined)
> 100 µM

Look up TGI for this compound: Cc1ccc(C(=O)N/N=C(\N=Nc2ccccc2Cl)c2ccc(N(C)C)cc2)cc1
> 100 µM

Look up TGI for this compound: Nc1cc(Cl)ccc1SSc1ccc(Cl)cc1N
40.6 µM

Look up TGI for this compound: CCCN(CCC)c1ccc(C=O)c(C)c1
> 100 µM

Look up TGI for this compound: O=C1/C(=C/c2ccc(O)c(O)c2)CC/C1=C\c1ccc(O)c(O)c1
> 100 µM

---

System: NCI-H522 lung
Assay: NCI tumour cell line growth inhibition, 48 h
MEASURED_METRIC: TGI

1) CC(C)(C)n1c(=O)n2n(c1=O)C1c3cccc4cccc(c34)C2C2c3cccc4cccc(c34)C1n1c(=O)n(C(C)(C)C)c(=O)n12	> 100 µM
2) O=C(c1ccccc1)c1nc2ccc(C(F)(F)F)cc2nc1N1CCN(c2ccccc2)CC1	91.3 µM
3) COc1ccc(N=Cc2ccc(N(CCC#N)S(=O)(=O)c3ccccc3)cc2C)cc1	> 100 µM
4) CCOC(=O)c1sc2nc1CSc1sc(=S)sc1SCc1nc(sc1C(=O)OCC)-c1nc(c(C(=O)OCC)s1)CSc1sc(=S)sc1SCc1nc-2sc1C(=O)OCC	> 10 µM
5) COc1cc(CNc2c3ccccc3nc3ccccc23)cc(OC)c1OC	11.6 µM
6) CC1=CC(=O)N(n2c(-c3ccccc3)n[nH]c2=O)C1=O	> 100 µM

Look up TGI for this compound: O=C(O)C12CCC(CC1=O)C2 (centres undefined)
> 100 µM

Look up TGI for this compound: O=C(CSSCC(=O)Nc1ccc(Br)cc1)Nc1ccc(Br)cc1
24.8 µM

Look up TGI for this compound: CN1NC(c2ccccc2)=C(C#N)C(=O)CC1c1ccc(F)cc1 (centres undefined)
> 100 µM

---

Quick list: TGI per entry.
Tested on: HCT-15 colon
Assay: NCI tumour cell line growth inhibition, 48 h
Where a SMILES comes first, the peptide text is derived from it. The star is where a group is joined. Boc = CC(C)(C)OC(=O)*; Bn = c1ccc(C*)cc1

// solved cases for TGI follow
1) CN1CC2=C(NC(=S)NC2c2ccccc2Cl)/C(=C/c2ccccc2Cl)C1 (stereo not drawn)	> 100 µM
2) CC(=O)NC1COC(COC(=O)CCCCCCCCCCNC(=O)c2ccc([N+](=O)[O-])c3c(=O)c4ccccc4[nH]c23)C(O)C1OC(C)C(=O)NC(C(=O)NC(CCC(N)=O)C(=O)OCc1ccccc1)C(C)C (stereo not drawn)	50.2 µM
3) Cc1cc2c(cc1Cl)SC(c1ccccc1O)NS2(=O)=O (stereo not drawn)	> 100 µM
4) CNC(=O)C(CC(C)C)NC(=O)C(C)NC(=O)C(Cc1ccc(OCc2ccccc2)cc1)NC(=O)C(COCc1ccccc1)NC(=O)OC(C)(C)C (stereo not drawn) (Boc-S(Bn)Y(Bn)AL-NHMe; configuration not given here)	> 100 µM
5) COc1cc(C2OC[C@@H]3C(=O)OC[C@H]23)cc(O)c1OC (stereo partly drawn)	> 100 µM
6) c1ccc2c(CNCCCCCCCCNCc3cccc4ccccc34)cccc2c1	3.38 µM
7) COC(=O)C(c1ccc(OC)cc1)N1C(=O)[C@@H](NC(=O)c2ccccc2)[C@H]1[C@@H](C)O (stereo partly drawn)	> 100 µM
8) COc1ccc2c(c1)CCCc1c-2nc2ccccc2c1N	26.5 µM

Look up TGI for this compound: O=C(Nc1cccc(C(=O)NCCCO)c1)/C(=C/c1ccccc1)NC(=O)c1ccccc1
> 100 µM

Look up TGI for this compound: CCOC(=O)C12CC(C)=C(C)CC1CCCc1ccccc12 (stereo not drawn)
59.8 µM

Look up TGI for this compound: O=c1[nH]c2c(c(=O)[nH]1)C(c1ccc([N+](=O)[O-])cc1)c1c([nH]c(=O)[nH]c1=O)O2
> 100 µM

Look up TGI for this compound: Cn1cc(C2=C(c3cn(CCCCCO)c4ccccc34)C(=O)NC2=O)c2ccccc21
> 25 µM

Look up TGI for this compound: O=C(CC1(O)C(=O)Nc2c(Cl)cc(Cl)cc21)c1ccc(F)cc1 (stereo not drawn)
> 100 µM

Look up TGI for this compound: O=c1cccc2n1CC1CNC[C@H]2C1
> 100 µM

Look up TGI for this compound: [Cu+2].[NH-]C(CC(=O)O)C(=O)O.[NH-]C(CC(=O)O)C(=O)O (stereo not drawn)
> 100 µM

---

Quick note: these are GI50 numbers for system: U251 CNS

// solved cases for GI50 follow
1) N#CC1=C(N)Oc2c(sc3c(Br)cccc23)C1c1ccc(Cl)cc1 (stereo not drawn)	563 nM
2) C=CC(=O)N1CC[C@H](n2nc(C#Cc3cc(OC)cc(OC)c3)c3c(N)ncnc32)C1	6380 nM
3) NC(N)=Nc1ccc(/C=C2\C=Cc3ccccc32)cc1	1720 nM
4) Cc1c2c(nn1-c1ccc(S(=O)(=O)NC(=S)NC(=O)c3ccccc3)cc1)-c1ccccc1CC2	43300 nM
5) CCNCCNc1cc(-c2ccc(C(F)(F)F)cc2)c(C#N)c2nc3cc(Cl)c(Cl)cc3n12	1670 nM

Look up GI50 for this compound: Cc1ccsc1-c1ccc2c(c1)COC2(CCCN(C)C)c1ccc(F)cc1 (stereo not drawn)
1950 nM

Look up GI50 for this compound: Nc1ncn([C@H]2C[C@H](OP(=O)(O)OC[C@H]3O[C@@H](n4cnc5c(=O)[nH]c(N)nc54)C[C@@H]3O)[C@@H](CO)O2)c(=O)n1
> 100000 nM

Look up GI50 for this compound: O=c1oc2ccc(Br)cc2c(=O)n1-c1ccc(Cl)cc1F
1260 nM

Look up GI50 for this compound: CCCN(CCC)c1ccc(C=O)c(C)c1
38500 nM

Look up GI50 for this compound: CN(C)c1ccccc1[CH2][Ga]([Cl])[CH2]c1ccccc1N(C)C
1160 nM

---

Quick list: TGI per entry.
Tested on: HOP-92 NSCLC
Assay: NCI tumour cell line growth inhibition, 48 h

// solved cases for TGI follow
1. COc1ccc(/C=C/C(=O)c2sc(-c3cccnc3)nc2C)cc1	> 100 µM
2. O=C1C(=O)N(c2ccc(Cl)cc2)C(=O)C(=Nc2cccc3c(=O)[nH][nH]c(=O)c23)C1c1nc2ccccc2o1 (stereo not given)	> 100 µM

Look up TGI for this compound: O=[N+]([O-])c1ccc2c(c1)C(c1ccccc1Cl)=Nc1c(n[nH]c1-c1cccnc1)N2
> 25 µM

Look up TGI for this compound: Cc1cccc(C)c1N=Nc1ccc(O)c(CN(C)C)c1
> 100 µM

Look up TGI for this compound: C=CCCCC1(C)CCNC1=S (stereo not given)
> 100 µM

---

Quick list: TGI per entry.
System: A498 renal
Assay: NCI tumour cell line growth inhibition, 48 h

// solved cases for TGI follow
1. C=CCCCC1(C)CCNC1=S (stereo not given)	> 100 µM
2. CCC1CCC2c3c([nH]c4ccc(C)cc34)C3C(=O)N(N(C)C)C(=O)C3C2C1 (stereo not given)	> 100 µM
3. CS(=O)(=O)O[C@H]1[C@H](O)c2ccccc2[C@@H]1N=[N+]=[N-]	> 100 µM
4. COc1cc(CNc2cnc3ccc(N)cc3n2)cc(OC)c1OC	> 100 µM
5. COc1cc(/C=C2\N=C(c3ccccc3)N(c3nc4ccc(Sc5ccccc5)cc4[nH]3)C2=O)cc(OC)c1OC	71.8 µM

Can you look up TGI on A498 renal for Cc1cc(=O)n2c3c(c4c(cc13)c(CN(C)C)cc(=O)n4C)OC2 ?
> 100 µM

Can you look up TGI on A498 renal for CNC(=O)c1cccc(C#Cc2cncnc2Nc2ccc(OCc3cccc(F)c3)c(Cl)c2)c1 ?
10.9 µM

Can you look up TGI on A498 renal for CCCN(CCC)c1ccc(C=O)c(C)c1 ?
3.28 µM

Can you look up TGI on A498 renal for C=C1C(=O)O[C@H]2[C@H]1CC/C(CNC(=O)/C=C/c1ccccc1F)=C\CC[C@@]1(C)O[C@@H]21 ?
7.49 µM

Can you look up TGI on A498 renal for C=CCOC(=O)Nc1cccn([C@H](CC(C)C)C(=O)NCCC(C)C)c1=O ?
> 100 µM

Can you look up TGI on A498 renal for NC(=O)CCSC(CC(=O)c1ccc(Cl)cc1)c1ccc(Cl)cc1 (stereo not given) ?
97.8 µM
